Where these numbers come from: the supplement of paper PMC3842684

System: P. falciparum NF54-pfs16-GFP late (IV-V) stage gametocytes
Assay: relative % inhibition of viable gametocyte number; higher = more gametocytocidal
Settings: 0.5 µM; stage: late (IV-V) gametocyte; incubation 72 h
Reported relative % inhibition values for the following compounds.
State the answer as a number, implicitly in %.

Examples with answers:
>  <COMPOUND>
CC(Oc1ccc(NC(=O)c2cccs2)cc1)C(=O)c1ccc(Cl)cc1 (stereo not drawn)

>  <MEASUREMENT UNITS>
%

>  <OBSERVED MEASUREMENT>
16.4

$$$$
>  <COMPOUND>
CCCCOC(=O)c1ccc(Nc2cc(C)nc3ccc(OC)cc23)cc1

>  <MEASUREMENT UNITS>
%

>  <OBSERVED MEASUREMENT>
13.1

$$$$

Q. Tell me its relative % inhibition on P. falciparum NF54-pfs16-GFP late (IV-V) stage gametocytes: COc1ccc2sc(N(Cc3cccnc3)C(=O)c3ccc(C#N)cc3)nc2c1
A. -14.5

Q. Please report relative % inhibition with P. falciparum NF54-pfs16-GFP late (IV-V) stage gametocytes for item COc1cccc(-c2nn(C)c3sc(C(=O)NCCN4CCN(c5ccccc5F)CC4)cc23)c1 .
A. 16.7

Q. Give measured relative % inhibition for Cc1cc(N2CCN(C3CCCC3)CC2)n2c(nc3ccccc32)c1C#N (P. falciparum NF54-pfs16-GFP late (IV-V) stage gametocytes).
A. 11.3

Q. Report the value of relative % inhibition obtained on P. falciparum NF54-pfs16-GFP late (IV-V) stage gametocytes for CN1CCN(c2ncnc3c2[nH]c2ccc(Cl)cc23)CC1 .
A. 2.38

Q. Give relative % inhibition for CCOc1cc2c(cc1OCC)C(c1cc(Cl)ccc1O)NCC2 (stereo not drawn) tested on P. falciparum NF54-pfs16-GFP late (IV-V) stage gametocytes.
A. 19

Q. # return relative % inhibition for Cn1c(=O)c2cc(C(=O)NCCCN3CCCCCC3)sc2c2ccccc21 , test system: P. falciparum NF54-pfs16-GFP late (IV-V) stage gametocytes
A. -1.01

Q. Give relative % inhibition for CC(C)CNC(=O)c1c(N)n(CCc2ccccc2F)c2nc3ccccc3nc12 tested on P. falciparum NF54-pfs16-GFP late (IV-V) stage gametocytes.
A. 3.01
